System: Tov-21-G
Assay explanation: Primary qHTS to identify gynecologic anti-cancer compounds using libraries of approved drugs and bioactive compounds (AID 1345084); also: nearly all actives have a fitted effect of over 55% in size
Condition set: Gynecologic cancer cell panel viability, ATPlite luminescence, 48 h; series mostly up to 57.5 µM
Records with an inconclusive call do not appear. Calls of active or inactive are those of the source. Calls follow the shape of the dose curve; as a rule, active = well fitted cell-killing curve with a large enough effect; inconclusive = small, poorly fitted or top-dose-only effect, or effect the other way; inactive = flat fitted curve, though single readings scatter.
Classes used: active, inactive

>  <Molecule>
CC(C)n1nc(-c2ccc3oc(N)nc3c2)c2c(N)ncnc21

>  <Class>
active

$$$$
>  <Molecule>
CCN1CCC[C@H]1CNC(=O)c1cc(S(N)(=O)=O)ccc1OC

>  <Class>
inactive

$$$$
>  <Molecule>
CCN(CC)C(=O)c1ccc(O)c(OC)c1

>  <Class>
inactive

$$$$
>  <Molecule>
COCCOC(=O)C1=C(C)NC2=C(C(=O)CC(c3ccccc3OC)C2)C1c1cccc(O)c1 (centres undefined)

>  <Class>
inactive

$$$$
>  <Molecule>
Cc1cccc(Nc2nc(-c3ccncc3)cs2)c1

>  <Class>
inactive

$$$$
>  <Molecule>
COc1cc(N2CCC(N3CCN(C)CC3)CC2)ccc1Nc1ncc(Cl)c(Nc2ccccc2S(=O)(=O)C(C)C)n1

>  <Class>
active

$$$$
>  <Molecule>
NC(=O)c1cccc(-c2cc(Nc3ccc(OC(F)(F)F)cc3)ncn2)c1

>  <Class>
inactive

$$$$
>  <Molecule>
CN1C[C@H]2c3ccccc3Oc3ccc(Cl)cc3[C@@H]2C1

>  <Class>
inactive

$$$$
>  <Molecule>
COC[C@@H](c1ccc(C(F)(F)F)cc1)N1CCN(C2(C)CCN(C(=O)c3c(C)ncnc3C)CC2)C[C@H]1C

>  <Class>
inactive

$$$$
>  <Molecule>
NC(N)=Nc1nc(CSCC/C(N)=N/S(N)(=O)=O)cs1

>  <Class>
inactive

$$$$
>  <Molecule>
COc1ccc(C2Sc3ccccc3N(CCN(C)C)C(=O)C2OC(C)=O)cc1 (centres undefined)

>  <Class>
inactive

$$$$
>  <Molecule>
COc1ccc(C2CC(c3ccccc3)=NN2c2ccc(S(N)(=O)=O)cc2)cc1 (centres undefined)

>  <Class>
inactive

$$$$
>  <Molecule>
C[N+](C)(C)CC(=O)O

>  <Class>
inactive

$$$$
>  <Molecule>
CC(=O)N[C@@H](CS)C(=O)O

>  <Class>
inactive

$$$$
>  <Molecule>
CO[C@H]1C=CO[C@@]2(C)Oc3c(C)c(O)c4c(O)c(c5c(c4c3C2=O)NC2(CCN(CC(C)C)CC2)N=5)=NC(=O)C(C)=CC=C[C@H](C)[C@H](O)[C@@H](C)[C@@H](O)[C@@H](C)[C@H](OC(C)=O)[C@H]1C

>  <Class>
inactive

$$$$
>  <Molecule>
CC1(C)CCC(CN2CCN(c3ccc(C(=O)NS(=O)(=O)c4ccc(NCC5CCOCC5)c([N+](=O)[O-])c4)c(Oc4cnc5[nH]ccc5c4)c3)CC2)=C(c2ccc(Cl)cc2)C1

>  <Class>
inactive

$$$$
>  <Molecule>
COc1ccc2cc(-c3nc(-c4ccc(S(C)=O)cc4)[nH]c3-c3ccncc3)ccc2c1 (centres undefined)

>  <Class>
inactive

$$$$
>  <Molecule>
COC(=O)[C@@H]1[C@H]2C[C@H]3c4[nH]c5ccccc5c4CCN3C[C@@H]2CC[C@@H]1O

>  <Class>
inactive

$$$$
>  <Molecule>
O=C(O)CCc1nc(-c2ccccc2)c(-c2ccccc2)o1

>  <Class>
inactive

$$$$
